Molecular target: CYP79D2 (Manihot esculenta)
Construct: made in house
Sequence (Q9M7B7 whole entry): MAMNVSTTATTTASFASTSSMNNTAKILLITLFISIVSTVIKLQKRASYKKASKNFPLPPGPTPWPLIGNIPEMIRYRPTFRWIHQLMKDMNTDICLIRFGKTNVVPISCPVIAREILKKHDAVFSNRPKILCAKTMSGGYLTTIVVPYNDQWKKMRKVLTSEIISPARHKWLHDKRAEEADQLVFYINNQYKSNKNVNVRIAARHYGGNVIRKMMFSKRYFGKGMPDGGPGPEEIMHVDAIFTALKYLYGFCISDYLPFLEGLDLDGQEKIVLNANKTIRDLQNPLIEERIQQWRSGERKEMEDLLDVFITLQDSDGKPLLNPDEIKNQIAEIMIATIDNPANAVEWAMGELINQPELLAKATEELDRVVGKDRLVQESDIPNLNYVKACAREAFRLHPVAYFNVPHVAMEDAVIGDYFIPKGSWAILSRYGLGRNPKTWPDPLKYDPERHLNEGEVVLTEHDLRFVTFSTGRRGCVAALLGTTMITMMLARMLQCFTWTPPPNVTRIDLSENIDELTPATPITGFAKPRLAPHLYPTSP
Type: biochemical, cassava
Protocol: Investigations into the substrate specificity of CYP79D1, CYP79D2, CYP79E1, CYP79E2, CYP79A2, CYP79B2, CYP79B5 and CYP79F1 are carried out in E. coli spheroplasts reconstituted with sorghum NADPH-cytochrome P450 oxidoreductase in the presence of high amounts of lipids. […] Depending on the nature of the substrate, substrate specificity may also be determined using intact P. pastoris cells or intact E. coli cells. […] c) chemically identifying and quantifying the aldoxime produced.
OUTCOME_MEASURE: conversion to the corresponding oxime by CYP79D2

# TEST_SMILES, VALUE
data = [
    ("CC[C@H](C)[C@H](N)C(=O)O", "found to convert"),
    ("CC(C)[C@H](N)C(=O)O", "found to convert"),
]
